ASSAY TARGET: T1, IL13RA2 Protein, Rhesus macaque, His tag (Rhesus macaque, UniProt A0A5F8A9D9 27-343)
T1 construct: the summary sentence says cynomolgous; also called Rhesus macaque IL13R alpha 2 protein with His tag; cynomolgous IL 13RA2 (as the text calls it); not shown: His tag
T1 sequence: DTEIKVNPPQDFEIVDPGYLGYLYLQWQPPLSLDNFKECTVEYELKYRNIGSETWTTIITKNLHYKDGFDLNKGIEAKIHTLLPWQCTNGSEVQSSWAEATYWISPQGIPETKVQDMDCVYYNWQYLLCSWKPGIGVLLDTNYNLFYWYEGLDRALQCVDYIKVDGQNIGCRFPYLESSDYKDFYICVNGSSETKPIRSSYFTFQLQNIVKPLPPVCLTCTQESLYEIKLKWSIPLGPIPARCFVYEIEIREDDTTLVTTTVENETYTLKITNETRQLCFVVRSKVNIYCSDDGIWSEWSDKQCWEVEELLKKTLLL
MEASUREMENT DESCRIPTION: BLI; biotinylated VHH captured on streptavidin biosensor, antigen 1 uM in solution
This section presents binders with their documented t½ values.

Record excerpt, results attached:
{"BINDER": "VH52f3 (VHH, biotinylated (site not stated), Expressed in E. coli and 6xHIS purified; also called VH52f3 Biotin; Anti-IL13Rα2 VH52) VHH: QVQLQESGGGLVQPGGSLRLSCEVSGSIFSINRMAWYRQVPEKEREMVAQITYGDTIKYYGSAKGRFTISRDSAKNAVYLQMNSLKPEDTAVYRCNIVGVLTTGHYEDSFWGQGTQVTVPS", "t½": "≥ 116 min"}
{"BINDER": "VH57f5 (VHH, biotinylated (site not stated), Expressed in E. coli and 6xHIS purified; also called VH57f5 Biotin; Anti-IL13Rα2 VH57) VHH: QVQLQESGGGLVQPGGSLRLSCAASGSIFNTNGMGWYRQAPGKQRERVAGISSGGNTVYAASVEGRFTISRDNAKNTGYLQMNNLKPEDTAVYYCRVAGRQDDYWGQGTQVTVSS", "t½": "2.4 min"}
{"BINDER": "VH53f3 (VHH, biotinylated (site not stated), Expressed in E. coli and 6xHIS purified; also called VH53f3 Biotin; Anti-IL13Rα2 VH53) VHH: QVQLQESGGGLVQPGGSLRLSCEVSGSISSINRMAWYRQVPGKEREMVAQITYGDTIKYYGSAKGRFTISKDSAKNAVYLQMNSLKPEDTAVYRCNIVGVLTTGHYENSFWGQGTQVTVSS", "t½": "≥ 116 min"}

# query: t½ of entry VH36f1 (VHH, biotinylated (site not stated), Expressed in E. coli and 6xHIS purified; also called VH36f1 Biotin; Anti-IL13Rα2 VH36) VHH: QVQLQESGGGSVQPGGSLRLSCAASGINISSDVMEWFRQGPGEQRELVAHITTNSRTEYADFVKGRFTISRANAKNTLYLQMNGLKPEDTALYYCALRRGGRILWGQGTQVTVSS
≥ 116 min

Another binder: IL13Ra2_2TIG4_f3 (VHH, biotinylated (site not stated), Expressed in E. coli and 6xHIS purified; also called IL13Ra2_2TIG4_f3-Biotin) VHH: QVQLQESGGGLVQPGGSLRLSCAASGRTYGMGWFRQAPGKEREFVAVGVWSSGNTYYADFARGRFTISRDNAKNTVYLQMDSLKPEDTAVYYCAAPRYSSYTTYHAAYDYWGPGTQVTVSS
30 min

VH43f2 (VHH, biotinylated (site not stated), Expressed in E. coli and 6xHIS purified; also called VH43f2-Biotin; Anti-IL13Rα2 VH43) VHH: QVQLQESGGGLVQPGGSLRLSCTASGSIRGIGYMAWGRQGPGKPRELIATINSAGDTNYAESVKGRFTVSRDNAENTLYLQMNNLKSEDTAVYYCNARPGLQSYWGQGTQVTVSS ?
7.04 min
